Target: UniProt Q8N884
Test: hcGAS Kinase-Glo assay (ATP depletion)
Type: biochemical
Details: 40 nM hcGAS, 100 μM ATP, 100 μM GTP, 25 nM dsDNA, 3 h incubation
Metric: IC50

[[record]]
compound = "COc1c(N2CCC[C@H]2CO)cc(C(=O)Nc2nnc(-n3nccc3C)s2)oc1=O"
value = "0.01 to 0.03 µM"

[[record]]
compound = "COc1c(N2CCOCC2)cc(C(=O)Nc2nnc(-n3nccc3C)s2)oc1=O"
value = "0.03 to 0.1 µM"

[[record]]
compound = "COc1c(N[C@H]2C[C@H](OC)C2)cc(C(=O)Nc2nnc(-n3nccc3C)s2)oc1=O"
value = "0.01 to 0.03 µM"

[[record]]
compound = "COc1c(NCCC#N)cc(C(=O)Nc2nnc(-n3nccc3C)s2)oc1=O"
value = "0.01 to 0.03 µM"

[[record]]
compound = "COc1c(N[C@H]2CCC[C@H]2OC)cc(C(=O)Nc2nnc(-n3nccc3C)s2)oc1=O (racemic)"
value = "0.01 to 0.03 µM"

[[record]]
compound = "COCCNc1cc(C(=O)Nc2nnc(-n3ncc(F)c3Cl)s2)oc(=O)c1OC"
value = "0.03 to 0.1 µM"

[[record]]
compound = "CNc1cc(C(=O)Nc2nnc(-n3nccc3C)s2)oc(=O)c1OC"
value = "0.03 to 0.1 µM"

[[record]]
compound = "COc1c(N[C@H]2CC[C@@H](O)C2)cc(C(=O)Nc2nnc(-n3nccc3C)s2)oc1=O (racemic)"
value = "0.01 to 0.03 µM"


----------
Listing: IC50 of selected molecules
Molecular target: UniProtKB Q8N884
Test: hcGAS LCMS assay (direct measurement of cGAMP production)
Format: biochemical
Details: 0.5 nM hcGAS, 100 μM ATP, 100 μM GTP, 25 nM dsDNA, 4 h incubation
Metric: IC50

[[record]]
molecule = "COC[C@]1(Nc2cc(C(=O)Nc3nnc(-n4nccc4C)s3)oc(=O)c2OC)CCOC1 (single isomer, unassigned)"
metric = "IC50"
value = "0.005 to 0.02 µM"

[[record]]
molecule = "COCCN(CCO)c1cc(C(=O)Nc2nnc(-n3nccc3C)s2)oc(=O)c1OC (single isomer, unassigned)"
metric = "IC50"
value = "≥ 0.2 µM"

[[record]]
molecule = "COc1c(NC23CC(OC)(C2)C3)cc(C(=O)Nc2nnc(-n3nccc3C)s2)oc1=O"
metric = "IC50"
value = "0.005 to 0.02 µM"

[[record]]
molecule = "COc1c(N[C@@H](C)[C@@H](C)OC)cc(C(=O)Nc2nnc(-n3nccc3C)s2)oc1=O"
metric = "IC50"
value = "0.02 to 0.06 µM"

[[record]]
molecule = "COCCNc1cc(C(=O)Nc2nnc(-c3c(Cl)nsc3Cl)s2)oc(=O)c1OC"
metric = "IC50"
value = "0.06 to 0.2 µM"

[[record]]
molecule = "COc1c(NC23CC(C2)C3)cc(C(=O)Nc2nnc(-n3nccc3C)s2)oc1=O"
metric = "IC50"
value = "0.005 to 0.02 µM"

[[record]]
molecule = "COc1c(NCC(C)(C)OC)cc(C(=O)Nc2nnc(-n3nccc3C)s2)oc1=O"
metric = "IC50"
value = "0.005 to 0.02 µM"


----------
Listing: pIC50 of selected compounds
Molecular target: hcGAS (Homo sapiens, UniProt Q8N884)
Sequence (Q8N884 whole entry): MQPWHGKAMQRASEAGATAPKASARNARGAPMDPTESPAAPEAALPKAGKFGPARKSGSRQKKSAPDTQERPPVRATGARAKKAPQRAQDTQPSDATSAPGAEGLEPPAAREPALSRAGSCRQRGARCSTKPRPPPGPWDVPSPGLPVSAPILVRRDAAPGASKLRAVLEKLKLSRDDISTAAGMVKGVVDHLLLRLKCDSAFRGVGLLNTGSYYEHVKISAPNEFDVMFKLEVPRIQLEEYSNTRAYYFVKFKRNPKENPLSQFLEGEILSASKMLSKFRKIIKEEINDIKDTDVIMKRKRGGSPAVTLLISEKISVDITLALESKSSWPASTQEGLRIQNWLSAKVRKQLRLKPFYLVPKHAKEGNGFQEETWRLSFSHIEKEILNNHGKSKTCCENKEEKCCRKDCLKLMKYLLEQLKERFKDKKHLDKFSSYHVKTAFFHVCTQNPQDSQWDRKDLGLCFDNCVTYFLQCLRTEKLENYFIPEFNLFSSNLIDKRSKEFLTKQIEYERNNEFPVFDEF
Assay: hcGAS LCMS assay (direct measurement of cGAMP production)
Type: biochemical
Settings: 0.5 nM hcGAS, 100 μM ATP, 100 μM GTP, 25 nM dsDNA, 4 h incubation
pIC50: −log10 of the molar value.
Metric: pIC50

[[record]]
compound = "COc1c(NC23CC(C2)C3)cc(C(=O)Nc2nnc(-n3nccc3N)s2)oc1=O [Compound 178]"
value = "7.22 to 7.70"

[[record]]
compound = "COc1c(NC(C)C)cc(C(=O)Nc2nnc(-n3nccc3C)s2)oc1=O [Compound 179]"
value = "7.70 to 8.30"

[[record]]
compound = "COc1c(NCC(C)(C)O)cc(C(=O)Nc2nnc(-n3nccc3C)s2)oc1=O [Compound 33]"
value = "7.22 to 7.70"

[[record]]
compound = "COCCNc1cc(C(=O)Nc2nnc(-c3c(C#N)csc3C)s2)oc(=O)c1OC [Compound 140]"
value = "6.70 to 7.22"

[[record]]
compound = "COc1c(NCCS(C)(=O)=O)cc(C(=O)Nc2nnc(-n3nccc3C)s2)oc1=O [Compound 183]"
value = "7.70 to 8.30"

[[record]]
compound = "COc1c(N[C@@H]2CCC[C@@H]2O)cc(C(=O)Nc2nnc(-c3sccc3Cl)s2)oc1=O (racemic) [Rac-7]"
value = "> 8.30"

[[record]]
compound = "COC[C@H](Nc1cc(C(=O)Nc2nnc(-n3nccc3C)s2)oc(=O)c1OC)c1ccccc1OC (single isomer, unassigned) [198*]"
value = "7.22 to 7.70"

[[record]]
compound = "COc1c(N2CC[C@@H](OC)C2=O)cc(C(=O)Nc2nnc(-n3nccc3C)s2)oc1=O [Compound 150]"
value = "7.70 to 8.30"


----------
Biological target: UniProtKB Q8N884
Assay: hcGAS Kinase-Glo assay (ATP depletion)
Format: biochemical
Conditions: 40 nM hcGAS, 100 μM ATP, 100 μM GTP, 25 nM dsDNA, 3 h incubation
Metric: IC50

[[record]]
molecule = "COc1c(N2C[C@H](OC)[C@@H](OC)C2)cc(C(=O)Nc2nnc(-n3nccc3C)s2)oc1=O (racemic) [Rac-92]"
metric = "IC50"
value = "0.01 to 0.03 µM"

[[record]]
molecule = "COC[C@H]1CCCN1c1cc(C(=O)Nc2nnc(-n3nccc3C)s2)oc(=O)c1OC [Compound 38]"
metric = "IC50"
value = "0.01 to 0.03 µM"

[[record]]
molecule = "COc1c(NCC(C)(C)OC)cc(C(=O)Nc2nnc(-n3nccc3C)s2)oc1=O [Compound 120]"
metric = "IC50"
value = "0.01 to 0.03 µM"

[[record]]
molecule = "COc1c(N2CC[C@H](O)C2)cc(C(=O)Nc2nnc(-n3nccc3C)s2)oc1=O [Compound 110]"
metric = "IC50"
value = "0.01 to 0.03 µM"

[[record]]
molecule = "COc1c(NCCN(C)C)cc(C(=O)Nc2nnc(-n3nccc3C)s2)oc1=O [Compound 181]"
metric = "IC50"
value = "≥ 0.1 µM"

[[record]]
molecule = "COc1c(NCCO)cc(C(=O)Nc2nnc(-c3sccc3Cl)s2)oc1=O [Compound 147]"
metric = "IC50"
value = "≥ 0.1 µM"

[[record]]
molecule = "COc1c(NC23CC(OC)(C2)C3)cc(C(=O)Nc2nnc(-n3nccc3C)s2)oc1=O [Compound 111]"
metric = "IC50"
value = "0.01 to 0.03 µM"


----------
Molecular target: hcGAS (Homo sapiens, UniProt Q8N884)
Assay: hcGAS LCMS assay (direct measurement of cGAMP production)
Type: biochemical
Details: 0.5 nM hcGAS, 100 μM ATP, 100 μM GTP, 25 nM dsDNA, 4 h incubation
Listing: IC50 of selected compounds
Metric: IC50

[[record]]
compound = "COC[C@H]1[C@H](OC)CCN1c1cc(C(=O)Nc2nnc(-n3nccc3C)s2)oc(=O)c1OC"
value = "5 to 20 nM"

[[record]]
compound = "COc1c(N[C@H]2CCC[C@H]2O)cc(C(=O)Nc2nnc(-c3c(Cl)ccn3C)s2)oc1=O (racemic) [Rac-188]"
value = "< 5 nM"

[[record]]
compound = "COc1c(N[C@@H]2CCC[C@@H]2OC)cc(C(=O)Nc2nnc(-n3nccc3C)s2)oc1=O (single isomer, unassigned)"
value = "5 to 20 nM"

[[record]]
compound = "COc1c(N[C@@H]2CC[C@@H]2OC)cc(C(=O)Nc2nnc(-n3nccc3C)s2)oc1=O (single isomer, unassigned)"
value = "5 to 20 nM"

[[record]]
compound = "COCCNc1cc(C(=O)Nc2nnc(-n3nccc3C)s2)oc(=O)c1OC"
value = "5 to 20 nM"

[[record]]
compound = "COc1c(NC[C@H]2CCCO2)cc(C(=O)Nc2nnc(-n3nccc3C)s2)oc1=O"
value = "20 to 60 nM"

[[record]]
compound = "COc1c(NC2CCC23COC3)cc(C(=O)Nc2nnc(-n3nccc3C)s2)oc1=O (racemic)"
value = "5 to 20 nM"


----------
Listing: pIC50 of selected molecules
Biological target: hcGAS (Homo sapiens, UniProt Q8N884)
Assay: hcGAS LCMS assay (direct measurement of cGAMP production)
Type: biochemical
Conditions: 0.5 nM hcGAS, 100 μM ATP, 100 μM GTP, 25 nM dsDNA, 4 h incubation
pIC50: −log10 of the molar value.
Metric: pIC50

[[record]]
molecule = "COc1c(N[C@H]2CC[C@H](OC)C2)cc(C(=O)Nc2nnc(-n3nccc3C)s2)oc1=O (racemic) [Rac-109]"
value = "7.70 to 8.30"

[[record]]
molecule = "COc1c(N[C@@H]2CC[C@@H]2OCC(F)F)cc(C(=O)Nc2nnc(-n3nccc3C)s2)oc1=O (single isomer, unassigned) [173*]"
value = "7.22 to 7.70"

[[record]]
molecule = "COc1c(N[C@H]2CCC[C@H]2OC)cc(C(=O)Nc2nnc(-n3nccc3C)s2)oc1=O (racemic) [Rac-14]"
value = "7.70 to 8.30"

[[record]]
molecule = "COC[C@@H]1CCN(c2cc(C(=O)Nc3nnc(-n4nccc4C)s3)oc(=O)c2OC)C1 [Compound 1]"
value = "7.70 to 8.30"

[[record]]
molecule = "COCCOc1c(N[C@H]2CCC[C@H]2O)cc(C(=O)Nc2nnc(-c3c(Cl)ccn3C)s2)oc1=O [Compound 85]"
value = "7.70 to 8.30"

[[record]]
molecule = "COc1c(N[C@@H]2c3ccccc3C[C@@H]2OC)cc(C(=O)Nc2nnc(-n3nccc3C)s2)oc1=O (racemic) [Rac-164]"
value = "7.70 to 8.30"

[[record]]
molecule = "COC[C@H](C)Nc1cc(C(=O)Nc2nnc(-n3nccc3C)s2)oc(=O)c1OC [Compound 64]"
value = "7.22 to 7.70"

